The entries below are paired with their reported phosphorylation enrichment.
target: FGFR3 (UniProt P22607); experiment: phosphorylation enrichment, bacterial display (enrichment ratio); higher = better substrate or ligand; peptides without Tyr show the background;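 note: 11-residue human phosphosite peptides and single-mutation variants displayed on the E. coli surface, counted by deep sequencing, each peptide's frequency after selection divided by its frequency in the unselected input library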;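 note: frequency after pTyr selection over input frequency; kinase dosed for 20-30% of maximal phosphorylation in three min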
Sequence (P22607 whole entry, looked up): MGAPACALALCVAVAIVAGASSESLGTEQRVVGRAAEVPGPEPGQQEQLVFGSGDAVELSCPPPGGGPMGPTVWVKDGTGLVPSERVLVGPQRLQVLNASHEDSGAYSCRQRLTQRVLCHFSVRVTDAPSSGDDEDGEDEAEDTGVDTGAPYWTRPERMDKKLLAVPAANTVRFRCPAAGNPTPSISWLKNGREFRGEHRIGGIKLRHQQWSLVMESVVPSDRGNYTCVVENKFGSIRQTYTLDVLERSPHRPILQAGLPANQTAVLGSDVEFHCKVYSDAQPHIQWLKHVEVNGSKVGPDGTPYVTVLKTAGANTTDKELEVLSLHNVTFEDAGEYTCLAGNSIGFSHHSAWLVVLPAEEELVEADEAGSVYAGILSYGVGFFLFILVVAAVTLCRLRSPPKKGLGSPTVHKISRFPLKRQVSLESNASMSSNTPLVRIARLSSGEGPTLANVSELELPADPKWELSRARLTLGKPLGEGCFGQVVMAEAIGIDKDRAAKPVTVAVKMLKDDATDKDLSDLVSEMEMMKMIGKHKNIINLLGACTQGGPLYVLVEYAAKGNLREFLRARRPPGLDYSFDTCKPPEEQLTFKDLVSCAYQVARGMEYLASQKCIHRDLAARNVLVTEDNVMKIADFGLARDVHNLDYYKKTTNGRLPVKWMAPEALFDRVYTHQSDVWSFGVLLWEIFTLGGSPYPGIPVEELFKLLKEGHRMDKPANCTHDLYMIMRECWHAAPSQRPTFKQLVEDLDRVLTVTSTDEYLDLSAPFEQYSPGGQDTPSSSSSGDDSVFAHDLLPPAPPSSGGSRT
Assay Endpoint: phosphorylation enrichment

sequence_string="ETKAFYPEEIS [HSPA1A_Y115]" recorded_number=0.687
sequence_string="RLLRGYDQSAF [HLA-C_Y137_YF]" recorded_number=0.712
sequence_string="SLDLSYYPTSS [EMD_Y181]" recorded_number=2.18
sequence_string="VLNDAYENLTR [SYNE2_Y3255]" recorded_number=0.761
sequence_string="SGRSGYCLGTR [SCO1_Y60_P58S]" recorded_number=0.432
sequence_string="AGDGRYEVLFL [SEMA3F_Y478_A474G]" recorded_number=0.786
sequence_string="QNRELYSEGLG [CNKSR1_Y665]" recorded_number=0.397
sequence_string="TFRPPYYHRDC [HGD_Y333_N337D]" recorded_number=1.12
sequence_string="FEGAIYRKDVG [GART_Y417]" recorded_number=0.539
sequence_string="WQQQSYLDLGI [CTNNB1_Y30_S33L]" recorded_number=1.36
sequence_string="LQRCKYSHMEP [TEX45_Y434]" recorded_number=0.957
sequence_string="EPFELYCEMGS [CBL_Y371_Q367P_YF]" recorded_number=1.22
sequence_string="LNAGAYSKVVQ [PPT1_Y172]" recorded_number=0.686
sequence_string="NFYEYYVDDPL [GCHFR_Y48_P53L]" recorded_number=5.52
sequence_string="TTEHIYGDKFF [UBA7_Y524_N527K]" recorded_number=0.563
sequence_string="VTQEPYELYCE [CBL_Y368_Q367P]" recorded_number=0.794
sequence_string="IGCHAYGDQYR [IDH1_Y135_R132C]" recorded_number=0.741
sequence_string="VLALWYFFLTH [ZDHHC23_Y127_YF]" recorded_number=1.76
sequence_string="LGGSPYPSVPV [FGFR1_Y701_G703S]" recorded_number=0.646
sequence_string="VTQEQYELHCE [CBL_Y368_Y371H]" recorded_number=0.874
sequence_string="SVTCTYSRALN [TP53_Y126_P128R]" recorded_number=0.796
sequence_string="KELAKYFKLHH [AK7_Y390_N389K_YF]" recorded_number=0.543
sequence_string="GVKLTYGDAQN [SLC28A1_Y404]" recorded_number=0.473
sequence_string="LTTEAYEWEPC [ELMOD3_Y61_R66C]" recorded_number=3.7
sequence_string="QDDTVYMGKVI [DCTN1_Y1244_T1249I]" recorded_number=0.938
sequence_string="VDESLYKTHPQ [HK1_Y417_G414E]" recorded_number=0.699
sequence_string="MKGEYYRYLAE [YWHAG_Y131_D129E]" recorded_number=2.92
sequence_string="LVRPPYSFLAL [FOXI1_Y126_S129L_YF]" recorded_number=0.866
sequence_string="VVQGIYGFHHH [UFSP2_Y285_Y290H_YF]" recorded_number=0.496
sequence_string="AIDVGYRLIDC [AKR1B1_Y40_H42L]" recorded_number=0.594
sequence_string="LNEVGYDDIGG [VCP_Y203]" recorded_number=1.72
